Experiment Notes: Pharmacokinetic analysis of NV-5297 in mice (i.v. and oral, LC-MS/MS)
Assay type: in vivo
Condition Context: male, mouse, serum; IV dose at 1 mg/kg, C57BL/6 mice; read-out: Terminal T1/2 (converted)
Quantity Name: half-life

Prompt: Fill blank: measured half-life of the molecule CC(C)(C[C@H](N)C(=O)O)C(F)(F)F is ____.
Response: 1.45 h

* * *

Experiment Notes: Pharmacokinetic analysis of NV-5297 in mice (i.v. and oral, LC-MS/MS)
Type: in vivo
Condition Context: male, mouse, serum; IV dose at 1 mg/kg, C57BL/6 mice
Quantity Name: clearance (mL/min/kg)
Please give a number only; it is taken to be in mL/min/kg.

Prompt: Fill blank: measured clearance of the compound CC(C)(C[C@H](N)C(=O)O)C(F)(F)F is ____.
Response: 13.3

* * *

Experiment Notes: Pharmacokinetic analysis of NV-5297 in mice (i.v. and oral, LC-MS/MS)
Assay type: in vivo
Condition Context: male, mouse, serum; OD (oral) dose at 5 mg/kg, C57BL/6 mice
Quantity Name: AUC(0-t) (ng·h/mL)
Please give a number only; it is taken to be in ng·h/mL.

Prompt: Fill blank: measured AUC(0-t) of the compound CC(C)(C[C@H](N)C(=O)O)C(F)(F)F [NV-5297] is ____.
Response: 6460

* * *

Experiment Notes: Pharmacokinetic analysis of NV-5297 in mice (i.v. and oral, LC-MS/MS)
Format: in vivo
Condition Context: male, mouse, serum; IV dose at 1 mg/kg, C57BL/6 mice
Quantity Name: AUC(0-inf) (ng·h/mL)
Please give a number only; it is taken to be in ng·h/mL.

Prompt: Fill blank: measured AUC(0-inf) of the compound CC(C)(C[C@H](N)C(=O)O)C(F)(F)F is ____.
Response: 1240

* * *

Experiment Notes: Pharmacokinetic analysis of NV-5297 in mice (i.v. and oral, LC-MS/MS)
Assay type: in vivo
Condition Context: male, mouse, serum; OD (oral) dose at 5 mg/kg vs IV 1 mg/kg, C57BL/6 mice; read-out: F (bioavailability)
Quantity Name: bioavailability (%)
Please give a number only; it is taken to be in %.

Prompt: Fill blank: measured bioavailability of the compound CC(C)(C[C@H](N)C(=O)O)C(F)(F)F is ____.
Response: 104

* * *

Experiment Notes: Pharmacokinetic analysis of NV-5297 in mice (i.v. and oral, LC-MS/MS)
Type: in vivo
Condition Context: male, mouse, serum; C57BL/6 mice, oral; 160 mg/kg, refers to S1 Table; read-out: half-life (converted)
Quantity Name: half-life

Prompt: Fill blank: measured half-life of the compound CC(C)(C[C@H](N)C(=O)O)C(F)(F)F is ____.
Response: ~3 h

* * *

Experiment Notes: Pharmacokinetic analysis of NV-5297 in mice (i.v. and oral, LC-MS/MS)
Type: in vivo
Condition Context: male, mouse, serum; OD (oral) dose at 5 mg/kg, C57BL/6 mice
Quantity Name: AUC(0-inf) (ng·h/mL)
Please give a number only; it is taken to be in ng·h/mL.

Prompt: Fill blank: measured AUC(0-inf) of the compound CC(C)(C[C@H](N)C(=O)O)C(F)(F)F is ____.
Response: 6470

* * *

Experiment Notes: Pharmacokinetic analysis of NV-5297 in mice (i.v. and oral, LC-MS/MS)
Type: in vivo
Condition Context: male, mouse, serum; OD (oral) dose at 5 mg/kg, C57BL/6 mice; read-out: Tmax
Quantity Name: Tmax (min)
Please give a number only; it is taken to be in min.

Prompt: Fill blank: measured Tmax of the molecule CC(C)(C[C@H](N)C(=O)O)C(F)(F)F [NV-5297] is ____.
Response: 30
